Provenance of the data: paper PMC5753150

*1 amine or outer side, *2 acyl side, *3 side chain or, on linkers, in order; H or OH if unused. Where a SMILES comes first, the peptide text is derived from it. [ ]: non-standard residue; d: D form. Leu(5,5,5,5',5',5'-F6) = N[C@@H](CC(C(F)(F)F)C(F)(F)F)C(=O)O; X1 = C[C@@H](CC(F)(F)F)[C@H](N[*:1])C(=O)[*:2]; 2Abz = Nc1ccccc1C(=O)O
Answer each item with its documented gain in stability vs non-fluorinated analogue after 24 h.
Just the number please, in %, no unit attached.

-- ask Recall and state the measured gain in stability vs non-fluorinated analogue after 24 h for C[C@H](NC(=O)[C@H](C)NC(=O)[C@H](C)NC(=O)[C@H](Cc1ccccc1)NC(=O)[C@@H](NC(=O)[C@H](C)NC(=O)[C@H](CCCCN)NC(=O)c1ccccc1N)[C@@H](C)CC(F)(F)F)C(=O)N[C@@H](C)C(=O)N[C@@H](CCCCN)C(=O)O [P2-TfIleFA] (H-[2Abz]KA[X1]FAAAAK-OH) .
-- reply 35

-- ask Identify measured gain in stability vs non-fluorinated analogue after 24 h corresponding to C[C@H](NC(=O)[C@H](C)NC(=O)[C@H](C)NC(=O)[C@H](Cc1ccccc1)NC(=O)[C@H](CC(C(F)(F)F)C(F)(F)F)NC(=O)[C@H](C)NC(=O)[C@H](CCCCN)NC(=O)c1ccccc1N)C(=O)N[C@@H](C)C(=O)N[C@@H](CCCCN)C(=O)O [P2-HfLeuFA] (H-[2Abz]KA[Leu(5,5,5,5',5',5'-F6)]FAAAAK-OH)
-- reply 19

---

# Tested on: α-chymotrypsin (EC 3.4.21.1)
# test: α-chymotrypsin in 10 mM phosphate buffer, pH 7.4
# experimental-conditions: bovine pancreas, 30 °C, up to 24 h
readout-type: cleaved bond

Use the examples below as a reference point.
{"columns": ["substance", "cleaved bond"],
 "data": [
  ["Abz-KAAFATfIleAAK", "F-A, major"],
  ["Abz-KAAFAHfLeuAAK", "F-A, major"],
  ["Abz-KAAFALeuAAK", "F-A, major"],
  ["Abz-KALeuFAAAAK", "F-A, major"],
  ["Abz-KAAFAIleAAK", "F-A, major"]
]}

-- ask Indicate the recorded cleaved bond value for this substance: `Abz-KAIleFAAAAK`
-- reply F-A, major

-- ask Write down cleaved bond measured for item `Abz-KAAFAAAAK`
-- reply F-A, major

---

# test: in vitro
# experimental-conditions: pig, pepsin from porcine stomach mucosa, pH 4
*1 amine or outer side, *2 acyl side, *3 side chain or, on linkers, in order; H or OH if unused. Where a SMILES comes first, the peptide text is derived from it. [ ]: non-standard residue; d: D form. X1 = C[C@@H](CC(F)(F)F)[C@H](N[*:1])C(=O)[*:2]; 2Abz = Nc1ccccc1C(=O)O
readout-type: remaining at 24 h, 2 mM (%)
Report only the number, with the unit % understood.

-- ask Please give the documented remaining at 24 h, 2 mM of C[C@H](NC(=O)[C@H](C)NC(=O)[C@H](C)NC(=O)[C@H](Cc1ccccc1)NC(=O)[C@@H](NC(=O)[C@H](C)NC(=O)[C@H](CCCCN)NC(=O)c1ccccc1N)[C@@H](C)CC(F)(F)F)C(=O)N[C@@H](C)C(=O)N[C@@H](CCCCN)C(=O)O [P2-TfIleFA] (H-[2Abz]KA[X1]FAAAAK-OH)
-- reply 100
